# TARGET OF ASSAY: fusion protein of the extracellular domain of the human inhibitory receptor CD200R fused to the Fc portion of human IgG1 (human) (UniProt Q8TD46)
# Sequence (Q8TD46 other isoform, or with tags, fused parts or gaps limits assumed, form in doubt): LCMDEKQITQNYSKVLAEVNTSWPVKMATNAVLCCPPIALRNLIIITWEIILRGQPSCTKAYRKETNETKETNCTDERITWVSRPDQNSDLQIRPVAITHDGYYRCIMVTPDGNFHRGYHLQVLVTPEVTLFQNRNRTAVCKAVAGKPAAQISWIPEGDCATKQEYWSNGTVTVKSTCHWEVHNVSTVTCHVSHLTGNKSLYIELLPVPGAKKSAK
# TEST PROTOCOL: SPR (BIAcore 3000), fusion protein captured by anti-human Fc, antibody at 133 and 13.3 nM, bivalent analyte model
QUANTITY KIND: Kd (nM)
# unit: nM | format: bare number

In: I am curious: what Kd value has been reported for DX178, rat anti-human inhibitory CD200R monoclonal antibody (antibody, V domains shown) VH: EIQLQESGPGLVKPSQSLSLTCSVTGFTITSGYDWSWIRKFPGNKMEWMGYIGFSGSTVYNPSLNSRISITRDTAKNQFFLQLNSVTTEDTATYHCAKSFVQNTFIYDWFFDFWGPGTMVTVSS VL: DVRMTQSPSNLAASPGESVSINCKASKNISKYLAWYQQKPGKANRLLICSGSTLQSGTPSRFSGSGFGTDFTLTIRNLEPEDFGLYYCQQHNEFPLTFGSGTKLEIKR ?
Out: 1.62
